- Experimental Target: influenza A/H3N2 NA, D93G single mutation (Influenza A virus (H3N2), UniProt V9SU56, D93G)
- Format: biochemical
- Condition Summary: read-out: mean drug concentration required to inhibit 50% NA activity
Attribute Measured: pIC50
Would you please state pIC50, meaning minus log10 of the concentration in mol/L, as a bare number?

q: Which pIC50 is listed for `CCC(CC)[C@H](NC(C)=O)[C@@H]1[C@H](O)[C@@H](C(=O)O)C[C@H]1N=C(N)N` ?
a: 9.70

###

- Experimental Target: influenza A/H3N2 NA, D93G, D251N mutations in combination (Influenza A virus (H3N2), UniProt V9SU56, D251N/D93G)
- Condition Summary: read-out: mean drug concentration required to inhibit 50% NA activity
Attribute Measured: IC50
In your response, put the unit directly after the numeric value.

q: Which IC50 is listed for `CCC(CC)[C@H](NC(C)=O)[C@@H]1[C@H](O)[C@@H](C(=O)O)C[C@H]1N=C(N)N` ?
a: 0.4 nM
